The origin of these recorded values is PubChem BioAssay (NCI).

- Test system: MDA-MB-231 breast
- TEST DESCRIPTION: NCI tumour cell line growth inhibition, 48 h
QUANTITY: TGI

Example entries begin here.
[
  {
    "MOLECULE": "O=c1[nH]cc(CO)c(=O)[nH]1",
    "TGI": "> 100 µM"
  },
  {
    "MOLECULE": "O=S1CCN(Cc2ccc(-c3ccc4ncnc(Nc5ccc(OCc6ccccc6)c(F)c5)c4c3)o2)CC1",
    "TGI": "> 23.7 µM"
  }
]

--- query ---
Lookup: Return reported TGI; argument: CC(C)CC(NC=O)C(=O)NC(Cc1ccccc1)NC(=O)CNC(=O)C(C)NC(=O)OC(C)(C)C (stereo not drawn)
Found: > 100 µM

###

- System: HL-60(TB) leukemia
- TEST DESCRIPTION: NCI tumour cell line growth inhibition, 48 h
Consider the following compounds; for each one, report its TGI.

Some compounds with recorded TGI:
[
  {
    "COMPOUND": "c1cc2ccc3cc2cc1CNCCOCCNCc1ccc2ccc(cc2c1)CNCCOCCNC3",
    "OBSERVED VALUE": "> 100 µM"
  },
  {
    "COMPOUND": "N=C1/C(=C/c2ccccc2)C(=O)N=C2SC=NN12",
    "OBSERVED VALUE": "> 100 µM"
  }
]

Batch request: TGI per item, same order as input.
1. [O-]/N=N\c1on[n+](CCc2ccccc2)c1Cc1c(/N=N/[O-])on[n+]1CCc1ccccc1
2. O=C1CSc2sc(=S)sc2S1
3. Cc1ccccc1C(=O)NC(O)(C(F)(F)F)C(F)(F)F
4. CC(C)[Si](Oc1cc2c3c(ccc2c(O)c1[C@@H](C)CO[Si](C)(C)C(C)(C)C)C(C)(C)CCC3)(C(C)C)C(C)C
5. Cc1ccc(S(=O)(=O)Nn2c(C)cc3ccc(S(=O)(=O)Nc4ccccc4[N+](=O)[O-])cc3c2=O)cc1

Found:
1. > 100 µM
2. > 100 µM
3. > 100 µM
4. 43.4 µM
5. > 100 µM

###

- Test system: EKVX NSCLC
- TEST DESCRIPTION: NCI tumour cell line growth inhibition, 48 h; in the data active = GI50 below about 0.43 µM; inactive = the rest
The reply should name one outcome from true (active), false (inactive)

Lookup: Outcome? COc1ccc(C2c3cc4c(c(OC)c3CC3OCC(=O)C32)OCO4)cc1OC (stereo not drawn)
Found: true

Lookup: Called result for Nc1cccc2c1CN(C1CCC(=O)NC1=O)C2=O (stereo not drawn)
Found: false

###

Please go through the items and note down their TGI.
- System: OVCAR-5 ovarian
- TEST DESCRIPTION: NCI tumour cell line growth inhibition, 48 h
Numbers only, in µM.

[
  {
    "STRUCTURE": "N#Cc1ccc(N2Cc3cc(Cl)ccc3OC3=C2C(=O)N(Cc2ccc(F)cc2)C3=O)cc1",
    "QUANTITY": "TGI",
    "OBSERVED VALUE": 1.93
  }
]

Would you kindly look at the next entry?
Lookup: Entry Cc1cc(N2CCN(C)CC2)nc(N(CCNc2ccnc3cc(Cl)ccc23)Cc2ccco2)n1 , system OVCAR-5 ovarian: what TGI was measured?
Found: 19.4

###

- System: MOLT-4 leukemia
- TEST DESCRIPTION: NCI tumour cell line growth inhibition, 48 h
For each entry below, report its TGI value.
Answers are plain numbers, in µM.

Please review the entries below; each comes with its answer.
[
  {
    "COMPOUND": "N#CC12CC=C(c3ccccc3)N=C1NC(c1ccccc1)=CC2 (stereo not given)",
    "ASSAYED TARGET": "MOLT-4 leukemia",
    "TGI, µM": 55.1
  },
  {
    "COMPOUND": "COc1ccc(-c2nnc(Nc3nc(O)c(C4=c5cc(OC(F)(F)F)ccc5=NC4=O)s3)o2)cc1",
    "ASSAYED TARGET": "MOLT-4 leukemia",
    "TGI, µM": 49.3
  },
  {
    "COMPOUND": "O=CN1CCN(C(=O)c2ccc(Cl)cc2)C1=S",
    "ASSAYED TARGET": "MOLT-4 leukemia",
    "TGI, µM": 48.2
  },
  {
    "COMPOUND": "COc1ccc(C(=O)/C=C/c2ccc(OCC#N)cc2)cc1OC",
    "ASSAYED TARGET": "MOLT-4 leukemia",
    "TGI, µM": 63.6
  },
  {
    "COMPOUND": "CCCCCCCCCCCCNC(=O)[C@H]1CSC(c2cc(Br)cs2)N1 (stereo not given in full)",
    "ASSAYED TARGET": "MOLT-4 leukemia",
    "TGI, µM": 1.76
  },
  {
    "COMPOUND": "CC(=O)[C@H]1[C@@H](OCc2ccccc2)O[N+]([O-])=C(C)[C@@H]1c1ccccc1",
    "ASSAYED TARGET": "MOLT-4 leukemia",
    "TGI, µM": 41.2
  }
]

List reported TGI for each of these compounds:
1. O=C1CC(NCCCNC2CC(=O)c3c(Br)sc(Br)c32)c2c(Br)sc(Br)c21 (stereo not given)
2. Nc1cccc(/C=C/CN2CCN(CCOC(c3ccccc3)c3ccccc3)CC2)c1

Found:
1: 1.21; 2: 19.2

###

Would you kindly list TGI for each of these compounds?
- System: LOX IMVI melanoma
- TEST DESCRIPTION: NCI tumour cell line growth inhibition, 48 h
Numbers only, in µM.

[
  {
    "COMPOUND": "CC12OC3(C(O)C1O)C(C(=O)O[C@H]3CO[Si](C)(C)C(C)(C)C)C2S(=O)(=O)c1ccccc1 (stereo partly specified)",
    "QUANTITY": "TGI",
    "OBSERVED VALUE": 46.8
  }
]

Consider the following items and state reported TGI for each.
1. CC(=O)O[C@@H]1[C@@H](C)[C@]2(CC(c3ccoc3)OC2O)C2CCC3O[C@]3(C)[C@]2(C)[C@@H]1OC(C)=O (stereo partly specified)
2. O=[N+]([O-])c1ccc(/C=N/n2c(CCc3n[nH]c(=S)n3/N=C/c3ccc([N+](=O)[O-])o3)n[nH]c2=S)o1
3. O=CNNC(=O)CSc1nc2ccc(I)cc2c(=O)n1Cc1ccccc1
4. Cc1cc2oc(=O)c(Cl)c(Cl)c2c(C)c1Cl
5. CCCCCCCCn1ccc2cc(NC(=O)Cn3cc(CN4CCC(C)CC4)nn3)ccc21
6. O=C(Nc1ccc2cc3ccc(NC(=O)N4CCCCCC4)cc3nc2c1)N1CCCCCC1
7. Cc1cc(Br)c2nsnc2c1[N+](=O)[O-]
8. CC[C@@]1(OC(=O)C(N)CCC(=O)O)C(=O)OCc2c1cc1n(c2=O)Cc2cc3ccccc3nc2-1 (stereo partly specified)

Found:
[44.1, 50.6, 69.1, 8.84, 3.05, 2.75, 3.07, 0.482]

###

- Tested on: MCF7 breast
- TEST DESCRIPTION: NCI tumour cell line growth inhibition, 48 h; in the data active = GI50 below about 0.43 µM; inactive = the rest
Field 'call' accepts active, inactive

Some solved cases for reference:
[
  {
    "COMPOUND": "Cc1cc(Br)c2nsnc2c1[N+](=O)[O-]",
    "CLASS ASSIGNMENT": "active"
  },
  {
    "COMPOUND": "Cc1cn(C2CC(N=[N+]=[N-])C(CO)O2)c(=O)[nH]c1=O (centres undefined)",
    "CLASS ASSIGNMENT": "inactive"
  },
  {
    "COMPOUND": "CCc1ccc(Oc2nccc(-c3c(-c4ccc(F)cc4)ncn3C3CCNCC3)n2)cc1",
    "CLASS ASSIGNMENT": "inactive"
  },
  {
    "COMPOUND": "O=S1CCN(Cc2ccc(-c3ccc4ncnc(Nc5ccc(OCc6ccccc6)c(F)c5)c4c3)o2)CC1",
    "CLASS ASSIGNMENT": "inactive"
  },
  {
    "COMPOUND": "Oc1[nH]c2ccc(Cl)cc2c1/C=c1/ccc2c(c1)N=C(c1ccc(C(F)(F)F)cc1)N=2",
    "CLASS ASSIGNMENT": "inactive"
  },
  {
    "COMPOUND": "Nc1cccc2c1CN(C1CCC(=O)NC1=O)C2=O (centres undefined)",
    "CLASS ASSIGNMENT": "inactive"
  },
  {
    "COMPOUND": "COc1ccc(Oc2nc(Nc3ccc(N4CCOCC4)cc3)ncc2NC(=O)Nc2cc(OC)cc(OC)c2)cc1",
    "CLASS ASSIGNMENT": "inactive"
  },
  {
    "COMPOUND": "COc1ccc(-c2nnc(Nc3nc(O)c(C4=c5cc(OC(F)(F)F)ccc5=NC4=O)s3)o2)cc1",
    "CLASS ASSIGNMENT": "inactive"
  }
]

Moving on to another compound below.
Lookup: // outcome(item) with item = Cc1ccc2c(n1)C(=O)C(Cl)=C(Nc1ccc(N3CCN(C)CC3)cc1)C2=O
Found: inactive
